Where these numbers come from: a melting point compilation (Tetko et al.; mined from patent text by program, amines drawn as free bases though some values may be those of a salt)

OUTCOME_MEASURE: melting point

// solved cases for melting point follow
Cc1cc(-c2cc(F)c(F)cc2-c2ccc(S(N)(=O)=O)cc2)ccc1Cl; 142 to 143 °C
CN1CCN(C)C(c2ccc(Nc3nc(Br)cn(C)c3=O)cc2)C1=O (stereo not given); 206 to 207 °C
COc1cc(OC)cc(-c2ncoc2-c2ccc(N)cc2)c1; 142 to 146 °C
COc1cc2c(cc1Nc1ncc(Cl)c(Nc3ccc(C(N)=O)cc3OC)n1)CCN(CC(=O)N(C)C)CC2; 113 to 131 °C
CCS(=O)(=O)CCC(=O)NNC(=O)N1Cc2ccccc2Oc2ccc(O)cc21; 191 to 194 °C

melting point reading for COP(=O)(O)CNc1cc(Cl)c(Oc2ccc(O)c3ccccc23)c(Cl)c1 : 85 to 87 °C

melting point reading for O=C(O)Cc1c(-c2ccccc2)nn(C2CCCCC2)c1-c1ccccc1 : 229 to 231 °C

melting point reading for O=c1c2c(c1=O)N(CCCP(=O)(O)O)CCCN2 : 244 to 248 °C

melting point reading for O=C(NCC1Cc2cccc(-c3ccc(F)cc3F)c2O1)OCc1ccccc1 (stereo not given) : 78 to 80 °C

melting point reading for Cc1cc(C)cc(Oc2c(CCl)c(C)[nH]c(=O)c2I)c1 : 256 to 258 °C

---

Measured melting point of individual entries

// solved cases for melting point follow
CCOC(=O)Nc1ccc(Cl)c(N)n1; 66 to 70 °C
Brc1cccc(C2Cc3cnc(Nc4ccc(CCNCc5ccccc5)cc4)nc3-c3ccccc32)c1 (stereo not given); 98 to 100 °C
CCCCc1ncc(/C=C2\C(=O)NC(=O)N2c2ccccc2)n1Cc1ccc(C(=O)O)cc1; 286 to 290 °C

Pending compound:
melting point reading for CCCCCCCCCCCCCCCCOC(=O)NCCN1CCCCC1 : 48 °C

---

OUTCOME_MEASURE: melting point

melting point reading for CCOC(=O)C1=Cc2cc(Cl)c(F)cc2OC1C(F)(F)F (stereo not given) : 97.6 to 98.6 °C

---

OUTCOME_MEASURE: melting point

melting point reading for CCOC(=O)C(=CC=C(O)C(=O)O)Sc1ccccc1 : 172 °C

---

Measured melting point of individual entries

// solved cases for melting point follow
CN1C(=O)C(Cc2ccccc2)Oc2ccc([N+](=O)[O-])cc21 (stereo unspecified); 166 to 169 °C
COc1cc(O)c2c(=O)cc(C(=O)Nc3ccc(CC4SC(=O)NC4=O)cc3)oc2c1 (stereo unspecified); 255 to 256 °C

melting point reading for FCCOc1ccc(COCc2ccc(Cl)cc2)cc1 : 43 to 43.7 °C

melting point reading for C/C(=C(\C#N)C(N)=S)N1CCC(C)CC1 : 156 to 159 °C

---

OUTCOME_MEASURE: melting point (°C)

CCOC(=O)C(=O)Nc1ccc(C#N)cc1[N+](=O)[O-]; 152
Cc1cn(-c2cccc(C3=Nc4ccc(-c5ccc(F)cc5)cc4NC(=O)C3)c2)c(C)n1; 188

(P) Oc1c2c(c3nccc4c3c1CCC4)CCCC2
(Q) CC(C)(C)OC(=O)C[C@H](NC(=O)CNC(=O)c1csc(NC(=O)NCc2ccccn2)n1)C(=O)NCc1ccccn1
Smaller melting point value, P vs Q ? Reply with the label of the item you choose.
Q
(Q: 112 °C, P: 224 °C)

---

Measured melting point of individual entries

// solved cases for melting point follow
NC(=O)c1cccc2c1CC(N(CCCc1c[nH]c3ccc(F)cc13)C1CCC1)CO2 (centres undefined); 102 to 105 °C
O=C(O)Cc1cnc2c(NC(=O)c3c(Cl)cccc3Cl)cccc2c1; > 250 °C
CCOC(=O)C(N=Nc1sc(C)c(C)c1C(=O)c1ccccc1)NC(=O)CCl (centres undefined); 123 to 125 °C
CCCCn1nc(C(F)(F)CC)nc1Cc1ccc(-c2ccccc2-c2nnn[nH]2)nc1; 98 to 100 °C
CCCc1c(C(=O)O)cnc(C(F)(F)F)c1C(=O)O; 236 °C
COc1ccc(C2=NNC(=O)CC2c2ccc(OC)c(F)c2)cc1F (centres undefined); 196 to 198 °C

melting point reading for CN(C)C=NC(=N[N+](=O)[O-])NC1CC1 : 120 to 122 °C

melting point reading for O=CCc1ccc2c(c1[N+](=O)[O-])C(=O)c1ccccc1C2=O : 192 °C

melting point reading for COc1ccc2c(c1)c(Cc1cc(=O)n(-c3cc(C)cc(C)c3)[nH]1)c(C)n2C(=O)c1ccc(Cl)cc1 : 77.5 to 79 °C

melting point reading for N#Cc1cc(C#N)cc(Oc2c(C3CC3)nn(CCO)c2C2CC2)c1 : 115 to 117 °C

---

OUTCOME_MEASURE: melting point

// solved cases for melting point follow
c1ccc(COc2ccc(C3CO3)nc2)cc1 (stereo not given); 45 to 47.5 °C
CCC(=NO)c1ccc(Oc2cc(F)cc([C@@]3(OC)CCO[C@@H]3C)c2)cc1 (racemic); 94 to 96 °C
Cc1ccc(Cl)cc1N1CN(C)CNC1=S; 171 to 173 °C

melting point reading for N#Cc1cc(NC(=O)c2ccc3ccccc3c2)ccc1N1CCC(O)CC1 : 183 to 185 °C

melting point reading for O=C1CCC(N2C(=O)c3cccc(Nc4ccc5ccccc5c4)c3C2=O)C(=O)N1 (stereo not given) : 235 to 237 °C

---

Measured melting point of individual entries

CCCCC(C)(Cc1ccc(OCCNC(=O)c2ccc(-c3ccccn3)cc2)cc1)C(=O)O (centres undefined); 106 to 108 °C

melting point reading for NS(=O)(=O)c1cc(C(=O)O)cc(N2CCCC2=O)c1Oc1ccccc1 : 282 to 285 °C

melting point reading for COc1cc(NS(=O)(=O)c2ccc(Cl)cc2)c(C(=O)Nc2ccc(S(=O)(=O)N3CCSCC3)cc2)cc1OC : 216 to 219 °C

melting point reading for CCN(CC)CC(=O)N1CCn2c(c(-c3ccccc3)c3cc(Cl)ccc32)C1 : 117 to 119 °C

melting point reading for O=C1CC[C@@H](c2ccccc2)[C@H](c2ccccc2)N1CO (relative stereo) : 127 to 129 °C

melting point reading for c1cc(Nc2nncc3ccccc23)cc(-n2ccnc2)c1 : 135 to 137 °C

---

OUTCOME_MEASURE: melting point

// solved cases for melting point follow
O=C(O)c1nc2cc(-n3ccnc3)c([N+](=O)[O-])cc2[nH]c1=O; > 300 °C
CCn1cc(C(=O)O)c(=O)c2cc(F)c(-c3ccnc(CNC(=O)OCc4ccccc4)n3)c(F)c21; 195 to 196 °C
CCOCN1C(C)=C(C(=O)O)[C@H](c2cccc([N+](=O)[O-])c2)C(C(=O)OCOC(=O)C(C)(C)C)=C1C; 85 to 86 °C
O=C(NC1CCN(CCCC(O)c2ccccc2)CC1)c1ccccc1 (stereo unspecified); 155 to 156 °C

melting point reading for CC1(C)C=C(O)C(=O)C(C)(C)C1 : 85 to 86 °C

melting point reading for Cc1ccc(-c2c(C#N)nn(-c3c(Cl)cc(C(F)(F)F)cc3Cl)c2N)cc1 : 243 to 244 °C

melting point reading for O=C(O)CCCCCC[C@H]1CC[C@@H](O)CC1 : 75 to 79 °C

melting point reading for COc1c(C)c(C)c(O)c(C)c1CN(C)CCOc1cc(C)ccc1C(C)C : 75 to 77 °C

melting point reading for CC(=O)N(CC1CC(c2ccc(Cl)cc2)=NO1)c1nnc(C)s1 (stereo unspecified) : 195 to 197 °C

melting point reading for CC(=O)SCC(CC(C)C)C(=O)O (stereo unspecified) : 42 to 47 °C

melting point reading for CON=C(C)c1ccccc1NC(C(N)=O)c1c(Cl)cccc1Cl (stereo unspecified) : 206 °C

---

OUTCOME_MEASURE: melting point

// solved cases for melting point follow
COc1cc(Nc2nccc(-c3cccc(OCCCN4C(=O)c5ccccc5C4=O)c3)n2)cc(OC)c1OC; 209 °C
Cc1cc(C)nc(-n2cnc(S(=O)(=O)Nc3c(Cl)cccc3Cl)n2)n1; 274 to 275 °C
CC1(C)CC(OC(=O)c2ccccc2)CC(C)(C)N1N=Nc1ccccc1; 89 to 91 °C
COc1ccc(CNc2nc(Cl)nc(Cl)c2C(=O)O)cc1Cl; 150 to 151 °C
Cc1ccc(OC2CCN(C(=O)C(=O)Nc3ccc4c(c3)OCC(=O)N4)CC2)cc1; 226 to 228 °C

melting point reading for N#Cc1cc(-c2ccco2)nc(N)n1 : 193 to 194 °C

melting point reading for CCOC(=O)C(=O)NCc1ccccc1 : 47 to 50 °C

melting point reading for CC(=O)OCCN(C)CC#CC1=Cc2ccccc2Sc2ccc(Cl)cc21 : 48 to 51 °C

melting point reading for NS(=O)(=O)c1cccc(-c2cc(-c3nc(-c4ccc(Cl)cc4)cc(C(F)(F)F)n3)ccn2)c1 : 182 °C
